experimental-parameters: 303.15 K; 101 kPa; Liquid
hey, just use MET if measured viscosity is less than 0.6 mPa·s, otherwise NOT MET

Would you please look over these solved cases?
compound: Cc1ccccc1 [toluene]
group: MET
//
compound: c1ccccc1 [benzene]
group: MET
//
compound: Cc1ccc(C)cc1 [1,4-dimethylbenzene]
group: MET
//
compound: CC1CCCCC1 [methylcyclohexane]
group: NOT MET
//
compound: Cc1cc(C)cc(C)c1 [1,3,5-trimethylbenzene]
group: NOT MET

Q: Does this compound meet the criterion viscosity < 0.6 mPa·s? COc1ccccc1 [anisole]
A: NOT MET

---

experimental-parameters: 298.15 K; 101 kPa; Liquid
Please provide measured viscosity for the entries that follow.
Answers are plain numbers, in mPa·s.

Observe how each entry below is paired with its result.
smiles-string: Cc1ccccc1
recorded-value: 0.559
//
smiles-string: Cc1ccc(C)cc1
recorded-value: 0.611
//
smiles-string: COc1ccccc1
recorded-value: 1.008
//
smiles-string: c1ccccc1
recorded-value: 0.602
//
smiles-string: CC1CCCCC1
recorded-value: 0.676

Q: Entry under review: Cc1cc(C)cc(C)c1 . Reported viscosity?
A: 0.667

---

experimental-parameters: 303.15 K; 101 kPa; Liquid
Response key: label 1 means mass density >= 900 kg/m3; label 0 means mass density < 900 kg/m3.

Q: Answer whether mass density of CC1CCCCC1 is greater than or equal to 900 kg/m3.
A: label 0

Q: Does mass density meet or surpass 900 kg/m3 for Cc1cc(C)cc(C)c1 ?
A: label 0

Q: Exam item: decide whether the reported mass density for c1ccccc1 is at least 900 kg/m3.
A: label 0

Q: Check the entry COc1ccccc1 : does mass density equal or exceed 900 kg/m3?
A: label 1

Q: // inclusive: mass density at least 900 kg/m3? input: Cc1ccccc1
A: label 0

Q: Record Cc1ccc(C)cc1 ; criterion: mass density no lower than 900 kg/m3. Met?
A: label 0

---

experimental-parameters: 308.15 K; 101 kPa; Liquid
measure: viscosity (mPa·s)
Numbers only, in mPa·s.

For orientation, consider the following solved cases.
smiles-string: CC1CCCCC1
viscosity (mPa·s): 0.59
//
smiles-string: Cc1ccc(C)cc1
viscosity (mPa·s): 0.54
//
smiles-string: Cc1ccccc1
viscosity (mPa·s): 0.497
//
smiles-string: Cc1cc(C)cc(C)c1
viscosity (mPa·s): 0.586
//
smiles-string: c1ccccc1
viscosity (mPa·s): 0.523

Next up:
Q: For the compound COc1ccccc1 , what viscosity is on record?
A: 0.861

---

assay-method-text: refractive index (Na D-line) (dimensionless)
experimental-parameters: 303.15 K; 101.33 kPa; Liquid
Answer each item with its documented refractive index.
One number for each entry.

smiles-string: c1ccccc1
refractive index: 1.4936
//
smiles-string: COc1ccccc1
refractive index: 1.5112
//
smiles-string: CC1CCCCC1
refractive index: 1.4192
//
smiles-string: Cc1ccc(C)cc1
refractive index: 1.4893
//
smiles-string: Cc1ccccc1
refractive index: 1.4902

Then there is this compound:
Q: Any idea what refractive index was measured for Cc1cc(C)cc(C)c1 ?
A: 1.4936

---

experimental-parameters: 298.15 K; 101 kPa; Liquid; Sing-around technique in a fixed-path interferometer
measure: speed of sound (m/s)
Give bare numbers, in m/s.

molecule: Cc1ccc(C)cc1 [1,4-dimethylbenzene]
units-label: m/s
speed of sound: 1326

molecule: CC1CCCCC1 [methylcyclohexane]
units-label: m/s
speed of sound: 1217

molecule: Cc1ccccc1 [toluene]
units-label: m/s
speed of sound: 1314

molecule: Cc1cc(C)cc(C)c1 [1,3,5-trimethylbenzene]
units-label: m/s
speed of sound: 1346

molecule: c1ccccc1 [benzene]
units-label: m/s
speed of sound: 1302

Q: For the molecule shown here, COc1ccccc1 [anisole] , give the reported speed of sound.
A: 1410
